# ELISA hMET vs parental annotations
biological target: T1, human cMET (human, UniProt P08581 25-932, limits assumed); assay: ELISA on human cMET, ratio to parental P3D12
T1 construct: also called hMET
T1 sequence (P08581 25-932 limits assumed): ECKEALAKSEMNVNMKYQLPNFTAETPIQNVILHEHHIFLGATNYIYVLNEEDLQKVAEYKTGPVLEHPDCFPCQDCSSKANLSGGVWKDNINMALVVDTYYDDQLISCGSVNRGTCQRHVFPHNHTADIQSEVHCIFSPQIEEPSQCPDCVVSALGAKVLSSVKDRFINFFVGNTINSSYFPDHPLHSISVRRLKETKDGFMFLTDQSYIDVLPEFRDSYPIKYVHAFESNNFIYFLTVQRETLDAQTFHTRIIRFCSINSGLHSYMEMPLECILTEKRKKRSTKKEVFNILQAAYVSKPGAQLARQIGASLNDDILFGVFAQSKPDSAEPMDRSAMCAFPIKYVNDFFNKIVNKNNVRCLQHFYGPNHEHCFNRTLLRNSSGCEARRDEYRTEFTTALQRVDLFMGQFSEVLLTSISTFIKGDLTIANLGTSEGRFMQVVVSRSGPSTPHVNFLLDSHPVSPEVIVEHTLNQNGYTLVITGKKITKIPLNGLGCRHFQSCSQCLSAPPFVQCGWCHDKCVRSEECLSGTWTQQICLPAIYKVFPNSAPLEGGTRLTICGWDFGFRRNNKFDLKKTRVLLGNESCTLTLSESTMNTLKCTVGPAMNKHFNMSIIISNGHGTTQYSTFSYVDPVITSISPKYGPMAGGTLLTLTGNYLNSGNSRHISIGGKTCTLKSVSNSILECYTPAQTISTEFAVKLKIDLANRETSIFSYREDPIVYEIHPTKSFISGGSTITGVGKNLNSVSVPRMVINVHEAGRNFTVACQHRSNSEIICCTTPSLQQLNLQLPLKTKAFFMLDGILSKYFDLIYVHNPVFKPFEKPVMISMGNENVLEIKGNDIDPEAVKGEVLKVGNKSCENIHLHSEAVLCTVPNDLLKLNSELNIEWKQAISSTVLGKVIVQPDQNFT
Enter a number only.

Guide cases for ELISA hMET vs parental, answers given:
# binder, ELISA hMET vs parental
records = [
    ("G2vkv (antibody, V domains shown, As G2aka; reported insoluble in PBS; also called humanized P3D12, HC VH-ven, LC ven) VH: QVQLVQSGAEVAKPGASVKMSCKASGYTFTSYWMHWVKQAPGQGLDWIGYIKPSTDNTEYNQKFKDKATLTADKSTSTAYMQLSSLRSEDTAVYYCARSYGNYPLMDYWGQGTTVTVSS VL: QIVLTQSPATMSASPGERVTLSCSASSSVTSNYLYWYQQKPGSSPRLWIYSTSNLASGVPARFSGSGSGTSYTLTISRMEPEDAASYFCHQWSSYPPTFGSGTKLEIKR", 1.8),
    ("G2akv (antibody, V domains shown, As G2aka; reported insoluble in PBS; also called humanized P3D12, HC VH-abb/sdr, LC ven) VH: QVQLVQSGAEVKKPGASVKVSCKASGYTFTSYWMHWVKQAPGQGLDWMGYIKPSTDNTEYAQKFQGRVTLTADKSTSTAYMELSSLRSEDTAVYYCARSYGNYPLMDYWGQGTTVTVSS VL: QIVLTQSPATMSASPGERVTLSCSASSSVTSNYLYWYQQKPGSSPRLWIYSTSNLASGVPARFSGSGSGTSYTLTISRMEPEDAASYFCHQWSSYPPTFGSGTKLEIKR", 1.8),
]

Request: Sample G2vkf (antibody, V domains shown, As G2aka; also called humanized P3D12, HC VH-ven, LC fra) VH: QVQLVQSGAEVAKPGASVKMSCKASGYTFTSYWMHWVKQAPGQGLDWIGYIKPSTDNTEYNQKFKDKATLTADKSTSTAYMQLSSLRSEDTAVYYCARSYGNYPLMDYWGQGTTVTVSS VL: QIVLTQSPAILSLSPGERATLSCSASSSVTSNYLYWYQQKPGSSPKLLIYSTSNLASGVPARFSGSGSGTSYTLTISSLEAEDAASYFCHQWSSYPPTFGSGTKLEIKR — what was its ELISA hMET vs parental?
Result: 1.1

Recorded values, source patent US20190330354A1.
